Target Desc: Muscarinic acetylcholine receptor M3 (Homo sapiens) (UniProt P20309)
Sequence (P20309 whole entry, looked up): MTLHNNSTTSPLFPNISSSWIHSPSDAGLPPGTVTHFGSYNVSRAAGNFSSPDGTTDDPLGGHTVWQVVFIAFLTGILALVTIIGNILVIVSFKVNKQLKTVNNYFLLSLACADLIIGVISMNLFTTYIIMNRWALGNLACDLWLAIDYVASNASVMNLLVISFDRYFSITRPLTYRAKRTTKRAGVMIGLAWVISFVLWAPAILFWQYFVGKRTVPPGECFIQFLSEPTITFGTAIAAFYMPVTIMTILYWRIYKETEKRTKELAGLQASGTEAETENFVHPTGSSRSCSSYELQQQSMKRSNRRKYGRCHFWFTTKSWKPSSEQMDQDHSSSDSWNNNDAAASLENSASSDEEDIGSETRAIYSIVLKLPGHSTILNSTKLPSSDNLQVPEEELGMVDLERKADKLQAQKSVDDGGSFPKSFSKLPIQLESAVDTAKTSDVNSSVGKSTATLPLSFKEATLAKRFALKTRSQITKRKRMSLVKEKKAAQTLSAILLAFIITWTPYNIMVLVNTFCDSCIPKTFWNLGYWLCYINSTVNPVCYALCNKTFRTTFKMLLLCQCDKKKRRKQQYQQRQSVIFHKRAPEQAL
Test Summary: ACh potency shift at human M3 – cell-based, analogs, calcium, selectivity assay for M4 PAM project, SAR follow-up (AID 1929)
Measurement Setup: hM3 cells, ACh CRC fold-shift, calcium mobilization; with ACh 0.1 µM; with compound at fixed dose
Test Readout: ACh response, % max
Please reply with the number alone, leaving off any unit.

As a guide, the following entries are already answered.
COc1ccc(CNC(=O)c2sc3nc(OCc4ccncc4)cc(C)c3c2N)cc1    90.1
Cc1cc(OCc2ccncc2)nc2sc(C(=O)NCc3cccc(F)c3F)c(N)c12    94.7
Cc1cc(OCc2ccncc2)nc2sc(C(=O)NCc3cc(F)ccc3F)c(N)c12    96.3

Problem: Query: ACh response, % max; subject: Cc1cc(OCCN2CCOCC2)nc2sc(C(=O)NC(C)(C)C)c(N)c12
Solution: 96.8

Cited source for all entries: PubChem BioAssay AID1929
